half-life at 1 µM reference
Assay: Half life in human hepatocytes at 1 uM by LC-MS/MS analysis
Format: ADME, cell-based, Hepatocyte
Give your result in min as a bare value.

{"Molecule": "CC(=O)CC[C@H]1C(=O)N[C@@H](C(C)C)C(=O)N[C@@H](Cc2cccc(O)c2)C(=O)N2CCCC(N2)C(=O)O[C@H](/C(C)=C/C=C/C(=O)N(C)c2ccccn2)C/C=C/C=C/[C@H](O)[C@H](C)[C@H]1O (some centres undefined)", "Readout Kind": "half-life at 1 µM", "Units Of Measure": "min", "Reported Value": 150}

Query: half-life at 1 µM for CC(=O)CC[C@H]1C(=O)N[C@@H](C(C)C)C(=O)N[C@@H](Cc2cccc(O)c2)C(=O)N2CCCC(N2)C(=O)O[C@H](/C(C)=C/C=C/C(=O)NC(C)C)C/C=C/C=C/[C@H](O)[C@H](C)[C@H]1O (stereo in doubt) ?
Result: 59
